These measurements were taken from paper PMC11855827.

# System: C. elegans
# Procedure Summary: microbe, parasite or virus in culture
# Conditions: Caenorhabditis elegans, 24 h, read-out: Percentage of motility inhibition 24 h, Table S2, C. elegans SS assay, 110 μM, 24 h, averages of 4 data points
Assign T whenever inhibition at 110 µM does not fall below 20%; assign F whenever it does.

Check out these entries, answers already filled in.
### Prompt State whether the measured inhibition at 110 µM reaches 20%, counting equality as reaching it, for "O=C(O)/C=C/C(=O)O"
### Response F

### Prompt State whether the measured inhibition at 110 µM reaches 20%, counting equality as reaching it, for "Cc1nc(C)c(Cl)c(O)c1Cl"
### Response F

### Prompt State whether the measured inhibition at 110 µM reaches 20%, counting equality as reaching it, for "O=C(O)c1ccccc1O"
### Response F

### Prompt State whether the measured inhibition at 110 µM reaches 20%, counting equality as reaching it, for "O=c1c(O)c(-c2ccccc2)oc2ccccc12"
### Response F

### Prompt State whether the measured inhibition at 110 µM reaches 20%, counting equality as reaching it, for "C[C@H](CCC(=O)NCCS(=O)(=O)O)[C@H]1CC[C@H]2[C@@H]3CC[C@@H]4C[C@H](O)CC[C@]4(C)[C@H]3C[C@H](O)[C@]12C"
### Response F

# evaluate next
### Prompt State whether the measured inhibition at 110 µM reaches 20%, counting equality as reaching it, for "Oc1ccc(Cl)c2cccnc12"
### Response F
